# EC50 annotations
- SUBJECT OF TEST: GLP-1R (Homo sapiens)
- Sequence (P43220 24-463): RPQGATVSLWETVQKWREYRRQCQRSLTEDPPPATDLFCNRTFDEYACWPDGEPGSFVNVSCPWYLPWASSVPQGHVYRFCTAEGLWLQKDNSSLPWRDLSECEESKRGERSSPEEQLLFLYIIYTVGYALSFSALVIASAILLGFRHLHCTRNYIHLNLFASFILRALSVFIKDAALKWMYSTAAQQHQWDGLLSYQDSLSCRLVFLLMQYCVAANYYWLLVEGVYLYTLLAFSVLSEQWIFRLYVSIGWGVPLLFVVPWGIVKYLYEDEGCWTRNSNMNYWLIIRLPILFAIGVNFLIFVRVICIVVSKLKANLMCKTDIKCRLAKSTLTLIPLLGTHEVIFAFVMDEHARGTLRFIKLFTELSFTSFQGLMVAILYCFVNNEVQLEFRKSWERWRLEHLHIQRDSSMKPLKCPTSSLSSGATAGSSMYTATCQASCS
- Sequence (P01275 100-127 partner limits assumed): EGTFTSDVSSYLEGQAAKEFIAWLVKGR
- ASSAY NAME: EC20 GLP-1(9-36) PAM cAMP Assay: dose response of compound in the presence of fixed concentration of GLP-1(9-36)
- ASSAY SETUP: GLP-1R CRE-bla CHO-K1 cells, in presence of fixed concentration of GLP-1(9-36), 30 min at 37° C.

// below: answered compounds
[[record]]
compound = "CCCC1CCC(C2CC=C(c3cnc(-c4ccc(C[C@H](NC(=O)c5ccc(C(C)(C)C)s5)C(=O)N[C@@H](CCN)C(=O)O)cc4)nc3)CC2)CC1 (some centres unmarked)"
endpoint_result = "2500 to 5000 nM"

[[record]]
compound = "CCCC1CCC(C2CC=C(c3cnc(-c4ccc(C[C@H](NC(=O)c5ccc(C6CC6)cc5)C(=O)N5CC(C(=O)O)C5)cc4)nc3)CC2)CC1 (some centres unmarked)"
endpoint_result = "< 500 nM"

[[record]]
compound = "CCCC1CCC(C2CC=C(c3cnc(-c4ccc(C[C@H](NC(=O)c5ccc(CC(C)C)s5)C(=O)N5CC(C(=O)O)C5)cc4)nc3)CC2)CC1 (some centres unmarked)"
endpoint_result = "< 500 nM"


stdin: Given the compound CC[C@H]1CC[C@H](C2CC=C(c3cnc(-c4ccc(C[C@H](NC(=O)c5ccc(C(C)(C)C)s5)C(=O)O)cc4)nc3)CC2)CC1 (some centres unmarked) , write its reported EC50.
stdout: 500 to 2500 nM

stdin: Given the compound CCCC1CCC(C2CC=C(c3cnc(-c4ccc(C[C@H](NC(=O)c5ccc(C(C)(C)C)s5)C(=O)N[C@H](Cc5cnc[nH]5)C(=O)O)cc4)nc3)CC2)CC1 (some centres unmarked) , write its reported EC50.
stdout: 500 to 2500 nM

stdin: Given the compound CCCC1CC=C(c2cnc(-c3ccc(C[C@H](NC(=O)c4ccc(C(C)(C)C)s4)C(=O)N[C@H](C)C(=O)O)cc3)nc2)CC1 (some centres unmarked) , write its reported EC50.
stdout: 500 to 2500 nM

stdin: Given the compound CCCCCC1CCC(C2CC=C(c3cnc(-c4ccc(C[C@H](NC(=O)c5ccc(C(C)(C)C)s5)C(=O)N5CC(C(=O)O)C5)cc4)nc3)CC2)CC1 (mixture of isomers) , write its reported EC50.
stdout: < 500 nM

stdin: Given the compound C[C@@H](NC(=O)[C@H](Cc1ccc(-c2ncc(C3=CCC(C(C)(C)C)CC3)cn2)cc1)NC(=O)c1ccc(C(C)(C)C)s1)C(=O)O (some centres unmarked) , write its reported EC50.
stdout: < 500 nM

stdin: Given the compound CCC[C@H]1CC[C@H](C2CC=C(c3cnc(-c4ccc(C[C@H](NC(=O)c5ccc(C(C)(C)C)cc5)C(=O)N5CC(C(=O)O)C5)cc4)nc3)CC2)CC1 (mixture of isomers) , write its reported EC50.
stdout: < 500 nM

stdin: Given the compound COC1CCC(C2CC=C(c3cnc(-c4ccc(C[C@H](NC(=O)c5ccc(C(C)(C)C)s5)C(=O)N5CC(C(=O)O)C5)cc4)nc3)CC2)CC1 (some centres unmarked) , write its reported EC50.
stdout: 500 to 2500 nM

stdin: Given the compound CCCC1CCC(C2CC=C(c3cnc(-c4ccc(C[C@H](NC(=O)c5ccc(C(C)(C)C)s5)C(=O)S(C)(=O)=O)cc4)nc3)CC2)CC1 (some centres unmarked) , write its reported EC50.
stdout: < 500 nM
